# Test system: 922993-354-T-J3-PDC complex spheroid viability
# PROTOCOL DESCRIPTION: Anticancer human tumor 922993-354-T-J3-PDC patient-derived endometrial carcinoma cell line growth inhibition [POLQ]
# TEST CONTEXT: second compound 3.16 µM; first compound 0.1 µM; stronger effect = lower value
# Method: Multicellular complex tumor spheroid response to Polymerase (POL) inhibitors (novobiocin, ART-558, RP6685) in combination with a variety of drugs and investigational agents in selected tumor cell lines The POL inhibitors (novobiocin, ART-558, and RP6685) were evaluated both individually and in combination with standard of care and investigational anticancer small molecules within a complex spheroid model of solid tumors. . […]
READOUT KIND: viability, T/C (%)
Express the result in % but write the number alone.

Worked cases, viability, T/C given:
COc1cccc2c1C(=O)c1c(O)c3c(c(O)c1C2=O)CC(O)(C(=O)CO)CC3OC1CC(N)C(O)C(C)O1 (stereo not given) + Nc1ccc(C#CCN(C(=O)Cc2ncc(C(F)(F)F)cc2C(F)(F)F)c2ccc(F)cc2)nn1 = 93.4
COc1ccc([C@@H](O)c2cc(-c3ncnc4cc(N5CCOCC5)ccc34)c(F)cc2Cl)nn1 + Nc1ccc(C#CCN(C(=O)Cc2ncc(C(F)(F)F)cc2C(F)(F)F)c2ccc(F)cc2)nn1 = 97
CCc1cc2c(N3CCc4c(cc(Cn5ccnc5)cc4-c4cn(C)nc4C(F)(F)F)C3=O)cc(C)nc2c(OC)n1 + COC1C(OC(N)=O)C(O)C(Oc2ccc3c(O)c(NC(=O)c4ccc(O)c(CC=C(C)C)c4)c(=O)oc3c2C)OC1(C)C = 106
O=c1[nH]cc(F)c(=O)[nH]1 + Cc1cccc(N(C)C(=O)C2C(O)CCN2c2nc(C)cc(C(F)(F)F)c2C#N)c1 = 104

Please find the next compound below.
Q: Return the recorded viability, T/C value; entry: CCc1c2c(nc3ccc(O)cc13)-c1cc3c(c(=O)n1C2)COC(=O)[C@]3(O)CC + Cc1cccc(N(C)C(=O)C2C(O)CCN2c2nc(C)cc(C(F)(F)F)c2C#N)c1
A: 9.8

###

# Tested on: 922993-354-T-J3-PDC complex spheroid viability
# PROTOCOL DESCRIPTION: Anticancer human tumor 922993-354-T-J3-PDC cell line growth inhibition [POLQ];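 further: spheroids exposed to the agents for one week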;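 on viability, T/C: 100% = DMSO vehicle control wells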
# TEST CONTEXT: second compound 10 µM; first compound 10 µM; stronger effect = lower value
# Description: Multicellular complex tumor spheroid response to Polymerase (POL) inhibitors (novobiocin, ART-558, RP6685) in combination with a variety of drugs and investigational agents in selected tumor cell lines The POL inhibitors (novobiocin, ART-558, and RP6685) were evaluated both individually and in combination with standard of care and investigational anticancer small molecules within a complex spheroid model of solid tumors. . […]
We begin with a simple list: items and their reported viability, T/C.
Express the result in % but write the number alone.

O=C(Nc1ccc(O)c(NS(=O)(=O)c2ccc(F)cc2)c1)c1ccc(-c2ccccc2)cc1 + Nc1ccc(C#CCN(C(=O)Cc2ncc(C(F)(F)F)cc2C(F)(F)F)c2ccc(F)cc2)nn1 = 102
COc1cc(C2c3cc4c(cc3C(OC3OC5COC(C)OC5C(O)C3O)C3COC(=O)C23)OCO4)cc(OC)c1O (centres undefined) + COC1C(OC(N)=O)C(O)C(Oc2ccc3c(O)c(NC(=O)c4ccc(O)c(CC=C(C)C)c4)c(=O)oc3c2C)OC1(C)C = 41.6
CC1COCCN1c1cc(C2(O)CC3CCC(C2)O3)c2cnn(-c3ccn[nH]3)c2n1 (centres undefined) + COC1C(OC(N)=O)C(O)C(Oc2ccc3c(O)c(NC(=O)c4ccc(O)c(CC=C(C)C)c4)c(=O)oc3c2C)OC1(C)C = 10.3

Please find the next molecule below.
Q: Return the recorded viability, T/C value; entry: O=C(c1cc(Cc2n[nH]c(=O)c3ccccc23)ccc1F)N1CCN(C(=O)C2CC2)CC1 + Nc1ccc(C#CCN(C(=O)Cc2ncc(C(F)(F)F)cc2C(F)(F)F)c2ccc(F)cc2)nn1
A: 90

###

# System: 922993-354-T-J3-PDC complex spheroid viability
# PROTOCOL DESCRIPTION: Anticancer human tumor 922993-354-T-J3-PDC cell line growth inhibition [POLQ];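 further: spheroids exposed to the agents for one week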
# TEST CONTEXT: curve of first compound; second compound 0.316 µM
pIC50: −log10 of the molar value.
We begin with a simple list: items and their reported pIC50.

Worked cases, pIC50 given:
CCc1cc2c(N3CCc4c(cc(Cn5ccnc5)cc4-c4cn(C)nc4C(F)(F)F)C3=O)ccnc2c(OC)n1 + Cc1cccc(N(C)C(=O)C2C(O)CCN2c2nc(C)cc(C(F)(F)F)c2C#N)c1 = < 5.00
COc1ccc([C@@H](O)c2cc(-c3ncnc4cc(N5CCOCC5)ccc34)c(F)cc2Cl)nn1 + COC1C(OC(N)=O)C(O)C(Oc2ccc3c(O)c(NC(=O)c4ccc(O)c(CC=C(C)C)c4)c(=O)oc3c2C)OC1(C)C = < 5.00
CC(=O)O[C@H]1C(=O)[C@@]2(C)[C@H]([C@H](OC(=O)c3ccccc3)[C@]3(O)C[C@H](OC(=O)[C@H](O)[C@@H](NC(=O)c4ccccc4)c4ccccc4)C(C)=C1C3(C)C)[C@]1(OC(C)=O)CO[C@@H]1C[C@@H]2O + COC1C(OC(N)=O)C(O)C(Oc2ccc3c(O)c(NC(=O)c4ccc(O)c(CC=C(C)C)c4)c(=O)oc3c2C)OC1(C)C = 5.52
C=CCn1c(=O)c2cnc(Nc3ccc(N4CCN(C)CC4)cc3)nc2n1-c1cccc(C(C)(C)O)n1 + Nc1ccc(C#CCN(C(=O)Cc2ncc(C(F)(F)F)cc2C(F)(F)F)c2ccc(F)cc2)nn1 = < 6.00
C=CCn1c(=O)c2cnc(Nc3ccc(N4CCN(C)CC4)cc3)nc2n1-c1cccc(C(C)(C)O)n1 + Cc1cccc(N(C)C(=O)C2C(O)CCN2c2nc(C)cc(C(F)(F)F)c2C#N)c1 = < 6.00
C=CC(=O)N1CCN(c2nc(=O)n(-c3c(C)ccnc3C(C)C)c3nc(-c4c(O)cccc4F)c(F)cc23)C(C)C1 (centres undefined) + COC1C(OC(N)=O)C(O)C(Oc2ccc3c(O)c(NC(=O)c4ccc(O)c(CC=C(C)C)c4)c(=O)oc3c2C)OC1(C)C = < 5.00

Q: State, for 922993-354-T-J3-PDC complex spheroid viability, measured pIC50 of the molecule listed here: CC(C)n1c(=O)n(C)c2cnc3cc(F)c(-c4ccc(OCCCN5CCCCC5)nc4)cc3c21 + COC1C(OC(N)=O)C(O)C(Oc2ccc3c(O)c(NC(=O)c4ccc(O)c(CC=C(C)C)c4)c(=O)oc3c2C)OC1(C)C
A: < 5.00

Q: State, for 922993-354-T-J3-PDC complex spheroid viability, measured pIC50 of the molecule listed here: C=CC(=O)N1CCN(c2nc(=O)n(-c3c(C)ccnc3C(C)C)c3nc(-c4c(O)cccc4F)c(F)cc23)C(C)C1 (centres undefined) + Cc1cccc(N(C)C(=O)C2C(O)CCN2c2nc(C)cc(C(F)(F)F)c2C#N)c1
A: < 5.00

Q: State, for 922993-354-T-J3-PDC complex spheroid viability, measured pIC50 of the molecule listed here: COc1cccc(OCCCN)c1-c1cc(Nc2cnc(C#N)cn2)n[nH]1 + Cc1cccc(N(C)C(=O)C2C(O)CCN2c2nc(C)cc(C(F)(F)F)c2C#N)c1
A: 6.21

###

# System: 922993-354-T-J3-PDC complex spheroid viability
# PROTOCOL DESCRIPTION: Anticancer human tumor 922993-354-T-J3-PDC cell line growth inhibition [POLQ];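 further: spheroids exposed to the agents for one week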;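 on viability, T/C: 100% = DMSO vehicle control wells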
# TEST CONTEXT: second compound 10 µM; first compound 0.01 µM; stronger effect = lower value
READOUT KIND: viability, T/C (%)
Express the result in % but write the number alone.

Worked cases, viability, T/C given:
Cn1ncnc1[C@H]1c2n[nH]c(=O)c3cc(F)cc(c23)N[C@@H]1c1ccc(F)cc1 + COC1C(OC(N)=O)C(O)C(Oc2ccc3c(O)c(NC(=O)c4ccc(O)c(CC=C(C)C)c4)c(=O)oc3c2C)OC1(C)C = 85.7
C=CCn1c(=O)c2cnc(Nc3ccc(N4CCN(C)CC4)cc3)nc2n1-c1cccc(C(C)(C)O)n1 + Nc1ccc(C#CCN(C(=O)Cc2ncc(C(F)(F)F)cc2C(F)(F)F)c2ccc(F)cc2)nn1 = 92.5
C=CCn1c(=O)c2cnc(Nc3ccc(N4CCN(C)CC4)cc3)nc2n1-c1cccc(C(C)(C)O)n1 + Cc1cccc(N(C)C(=O)C2C(O)CCN2c2nc(C)cc(C(F)(F)F)c2C#N)c1 = 97.1
COc1cccc(OCCCN)c1-c1cc(Nc2cnc(C#N)cn2)n[nH]1 + COC1C(OC(N)=O)C(O)C(Oc2ccc3c(O)c(NC(=O)c4ccc(O)c(CC=C(C)C)c4)c(=O)oc3c2C)OC1(C)C = 69.7
C=CCn1c(=O)c2cnc(Nc3ccc(N4CCN(C)CC4)cc3)nc2n1-c1cccc(C(C)(C)O)n1 + COC1C(OC(N)=O)C(O)C(Oc2ccc3c(O)c(NC(=O)c4ccc(O)c(CC=C(C)C)c4)c(=O)oc3c2C)OC1(C)C = 69.8
COc1cccc(OCCCN)c1-c1cc(Nc2cnc(C#N)cn2)n[nH]1 + Nc1ccc(C#CCN(C(=O)Cc2ncc(C(F)(F)F)cc2C(F)(F)F)c2ccc(F)cc2)nn1 = 92.8
COc1cccc(OCCCN)c1-c1cc(Nc2cnc(C#N)cn2)n[nH]1 + Cc1cccc(N(C)C(=O)C2C(O)CCN2c2nc(C)cc(C(F)(F)F)c2C#N)c1 = 101
CC[C@@]1(O)C(=O)OCc2c1cc1n(c2=O)Cc2cc3c(CN(C)C)c(O)ccc3nc2-1 + Cc1cccc(N(C)C(=O)C2C(O)CCN2c2nc(C)cc(C(F)(F)F)c2C#N)c1 = 79.1
Cn1ncnc1[C@H]1c2n[nH]c(=O)c3cc(F)cc(c23)N[C@@H]1c1ccc(F)cc1 + Cc1cccc(N(C)C(=O)C2C(O)CCN2c2nc(C)cc(C(F)(F)F)c2C#N)c1 = 72.9

Q: Return the recorded viability, T/C value; entry: CC[C@@]1(O)C(=O)OCc2c1cc1n(c2=O)Cc2cc3c(CN(C)C)c(O)ccc3nc2-1 + Nc1ccc(C#CCN(C(=O)Cc2ncc(C(F)(F)F)cc2C(F)(F)F)c2ccc(F)cc2)nn1
A: 92.9

Where these numbers come from: PubChem BioAssay AID1963830
